Biological target: PR (Homo sapiens, UniProt P06401)
Sequence (P06401 1-933): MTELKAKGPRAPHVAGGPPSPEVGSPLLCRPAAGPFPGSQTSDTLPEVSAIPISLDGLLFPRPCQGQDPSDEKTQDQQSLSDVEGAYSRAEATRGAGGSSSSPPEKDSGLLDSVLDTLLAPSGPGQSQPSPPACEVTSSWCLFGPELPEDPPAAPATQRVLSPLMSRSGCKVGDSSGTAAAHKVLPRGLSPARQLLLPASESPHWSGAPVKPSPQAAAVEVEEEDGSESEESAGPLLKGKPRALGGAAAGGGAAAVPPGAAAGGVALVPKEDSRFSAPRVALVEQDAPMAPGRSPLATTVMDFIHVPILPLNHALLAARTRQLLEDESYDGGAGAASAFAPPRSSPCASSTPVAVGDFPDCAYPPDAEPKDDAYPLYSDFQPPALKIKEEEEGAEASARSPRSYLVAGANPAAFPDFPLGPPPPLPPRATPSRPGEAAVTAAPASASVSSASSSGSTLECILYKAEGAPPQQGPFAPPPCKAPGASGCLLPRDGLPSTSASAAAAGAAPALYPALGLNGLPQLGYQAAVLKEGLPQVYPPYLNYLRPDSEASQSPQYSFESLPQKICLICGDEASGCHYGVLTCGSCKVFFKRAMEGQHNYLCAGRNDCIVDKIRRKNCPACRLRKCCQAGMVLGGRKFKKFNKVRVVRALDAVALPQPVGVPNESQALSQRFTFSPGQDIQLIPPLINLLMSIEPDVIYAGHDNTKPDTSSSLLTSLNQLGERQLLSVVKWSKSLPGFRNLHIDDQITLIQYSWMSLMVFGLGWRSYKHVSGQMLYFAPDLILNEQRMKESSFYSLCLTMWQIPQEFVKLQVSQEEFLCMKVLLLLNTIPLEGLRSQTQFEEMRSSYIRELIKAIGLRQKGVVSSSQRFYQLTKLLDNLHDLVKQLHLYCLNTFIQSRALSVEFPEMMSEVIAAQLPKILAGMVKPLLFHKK

{"columns": ["molecule", "scale unit", "Ki"],
 "data": [
  ["COc1cccc2c1-c1ccc3c(c1C(Cc1ccc(F)cc1)O2)C(C)=CC(C)(C)N3 (stereo not shown) [YJH08]", "nM", 555]
]}
